biological target: human M1 receptor (hCHRM1) (Homo sapiens); construct: expressed in transfected cells; host or cells: CHO-K1; assay: Measurement of M1 receptor positive allosteric modulator (M1PAM) activity (calcium fluorescence, Fluo-4, FDSS); format: cell-based; settings: 10 μM test compound; acetylcholine EC20 (final 0.8 nM) present; 100% = acetylcholine 1 μM, 0% = DMSO; CHO-K1 hCHRM1 cells
Sequence (P11229 whole entry): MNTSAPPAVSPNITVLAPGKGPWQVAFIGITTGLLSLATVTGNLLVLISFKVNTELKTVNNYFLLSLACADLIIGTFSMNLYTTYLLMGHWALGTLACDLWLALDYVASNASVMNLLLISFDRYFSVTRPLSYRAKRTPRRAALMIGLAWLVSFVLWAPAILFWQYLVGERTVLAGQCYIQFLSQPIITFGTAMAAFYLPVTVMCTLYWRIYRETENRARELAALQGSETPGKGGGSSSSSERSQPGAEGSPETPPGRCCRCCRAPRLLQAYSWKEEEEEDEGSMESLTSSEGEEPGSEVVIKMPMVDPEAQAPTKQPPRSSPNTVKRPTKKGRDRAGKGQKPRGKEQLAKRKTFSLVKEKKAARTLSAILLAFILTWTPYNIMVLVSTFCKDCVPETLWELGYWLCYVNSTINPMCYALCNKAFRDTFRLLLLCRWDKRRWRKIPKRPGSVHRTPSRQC
REPORTED METRIC: activity (%) at 10 μM
Lab book: enter the figure in %, no units written.

### Prompt Recall and state the measured activity (%) at 10 μM for Cc1c(Cc2ccc(-n3cccn3)cc2)cc2c(=O)n([C@H]3CCCC[C@@H]3O)cnc2c1C (relative stereo) .
### Response 92

### Prompt Recall and state the measured activity (%) at 10 μM for COc1cc(Cc2ccc(-c3cnn(C)c3)cc2)cc2c(=O)n([C@H]3CCC[C@@H]3O)cnc12 (relative stereo) .
### Response 97

### Prompt Recall and state the measured activity (%) at 10 μM for `Cc1c(Cc2ccc(-n3cccn3)cc2)cc2c(=O)n([C@H]3CCOC[C@@H]3O)cnc2c1C` .
### Response 99

### Prompt Recall and state the measured activity (%) at 10 μM for Cc1cc(-c2ccc(Cc3cc4c(=O)n([C@H]5CCC[C@@H]5O)cnc4c(C)c3C)cn2)ccn1 (relative stereo) .
### Response 99

### Prompt Recall and state the measured activity (%) at 10 μM for Cc1c(Cc2ccc(Cl)nc2)cc2c(=O)n([C@H]3CCCC[C@@H]3O)cnc2c1C (relative stereo) [Example 19] .
### Response 97

### Prompt Recall and state the measured activity (%) at 10 μM for `Cc1c(Cc2ccc(-c3ccn(C)n3)nc2)cc2c(=O)n([C@H]3COCC[C@@H]3O)nnc2c1C` .
### Response 95

### Prompt Recall and state the measured activity (%) at 10 μM for Cc1c(Cc2ccc(-c3cnn(C)c3)nc2)cc2c(=O)n([C@H]3CCC[C@@H]3O)cnc2c1C (relative stereo) [Example 15] .
### Response 100

### Prompt Recall and state the measured activity (%) at 10 μM for `Cc1c(Cc2ccc(-c3cnn(C)c3)nc2)cc2c(=O)n([C@H]3CCCC[C@@H]3O)cnc2c1C` .
### Response 94
